Recorded values, source patent US8420657B2.

measuredOn: cMet (Homo sapiens, UniProt P08581)
Construct: using the recombinant domains of cMet, cKit, ALK and PDGFRalpha kinases
Sequence (P08581 1078-1345 limits assumed): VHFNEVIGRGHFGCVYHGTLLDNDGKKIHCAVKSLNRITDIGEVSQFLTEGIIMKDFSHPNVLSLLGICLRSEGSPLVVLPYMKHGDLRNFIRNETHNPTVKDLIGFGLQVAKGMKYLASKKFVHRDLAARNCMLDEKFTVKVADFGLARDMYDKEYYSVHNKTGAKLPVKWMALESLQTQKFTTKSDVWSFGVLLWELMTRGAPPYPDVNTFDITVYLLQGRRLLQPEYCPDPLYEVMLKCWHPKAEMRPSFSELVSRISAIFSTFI
protocolText: cMet LanthaScreen TR-FRET kinase phosphorylation assay
testSettings: recombinant kinase domain
Quick reference for IC50 among some compounds

- chemicalStructure: "N#Cc1ccc(Nc2ncc3ccn(-c4ccc(C(=O)N5CCOCC5)cc4)c3n2)cn1"
  IC50: "> 10 µM"
- chemicalStructure: "COCc1ccc(Nc2ncc3ccn(-c4cc(F)c(CN5CCS(=O)(=O)CC5)c(F)c4)c3n2)cc1"
  IC50: "> 10 µM"
- chemicalStructure: "Cc1ccc(Nc2ncc3ccn(-c4cc(F)c(CN5CCNC(=O)C5)c(F)c4)c3n2)cc1CN1CCNCC1"
  IC50: "2.4 µM"
- chemicalStructure: "Cc1cc(Nc2ncc3ccn(-c4ccc(C(=O)N5CCOCC5)c(F)c4)c3n2)nn1C"
  IC50: "> 10 µM"

* * *

measuredOn: GST-JAK2(808-1132) (Homo sapiens)
Construct: GST-JAK2(808-1132); purchased Invitrogen (Carlsbad, USA) #4288
Sequence (O60674 808-1132): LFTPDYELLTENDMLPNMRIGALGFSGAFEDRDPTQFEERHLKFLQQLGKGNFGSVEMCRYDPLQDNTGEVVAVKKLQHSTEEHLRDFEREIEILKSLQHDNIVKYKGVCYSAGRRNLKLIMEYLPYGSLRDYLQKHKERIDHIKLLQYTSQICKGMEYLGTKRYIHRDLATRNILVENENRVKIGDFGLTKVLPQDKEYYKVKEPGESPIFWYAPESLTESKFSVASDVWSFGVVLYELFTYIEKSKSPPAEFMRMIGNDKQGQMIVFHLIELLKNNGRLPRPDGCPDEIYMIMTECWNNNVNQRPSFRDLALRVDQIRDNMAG
protocolText: JAK2 kinase assay (Caliper mobility shift, LabChip 3000)
Assay type: biochemical
observedProperty: log10 IC50 (log10 of the value in nM)

- chemicalStructure: "Cc1ccc(Nc2ncc3ccn(-c4ccc(S(C)(=O)=O)cc4)c3n2)cn1"
  log10 IC50: 1.32
- chemicalStructure: "Cc1ccc(Nc2ncc3ccn(-c4ccc(C(=O)N5CCOCC5)cc4)c3n2)cc1CN1CCN(C)CC1"
  log10 IC50: 0.52
- chemicalStructure: "Cn1cc(Nc2ncc3ccn(-c4ccc(C(=O)N5CCOCC5)cc4)c3n2)cn1"
  log10 IC50: 0.85
- chemicalStructure: "C[C@@H]1CN(c2ccc(Nc3ncc4ccn(-c5cc(F)cc(F)c5)c4n3)cn2)C[C@H](C)N1"
  log10 IC50: 0.61
- chemicalStructure: "O=C(c1c(F)cc(-n2ccc3cnc(Nc4cccnc4)nc32)cc1F)N1CCOCC1"
  log10 IC50: 0.52
- chemicalStructure: "CN1CCN(C(=O)Cc2cccc(Nc3ncc4ccn(-c5ccc(S(C)(=O)=O)cc5)c4n3)c2)CC1"
  log10 IC50: 0.75
- chemicalStructure: "COc1ccc(Nc2ncc3ccn(-c4ccc(S(C)(=O)=O)cc4)c3n2)c(OC)c1"
  log10 IC50: 2.23
- chemicalStructure: "CN1CCN(c2ccc(Nc3ncc4ccn(-c5cc(F)c(CO)c(F)c5)c4n3)cn2)CC1"
  log10 IC50: 0.54

* * *

Quick reference for IC50 among some molecules
measuredOn: cMet (Homo sapiens)
Construct: using the recombinant domains of cMet, cKit, ALK and PDGFRalpha kinases
protocolText: cMet LanthaScreen TR-FRET kinase phosphorylation assay
Format: biochemical
testSettings: recombinant kinase domain

- chemicalStructure: "Cc1ccc(Nc2ncc3ccn(-c4cc(F)c(CN5CCOCC5)c(F)c4)c3n2)cc1CN1CCNCC1"
  qualifierSign: "="
  IC50 [µM]: 7.57
- chemicalStructure: "Fc1cc(-n2ccc3cnc(Nc4ccnc(CN5CCNCC5)c4)nc32)cc(F)c1CN1CCOCC1"
  qualifierSign: ">"
  IC50 [µM]: 10
- chemicalStructure: "CC1(C)NCCN(c2cc(Nc3ncc4ccn(-c5cc(F)c(CN6CCOCC6)c(F)c5)c4n3)ccn2)C1=O"
  qualifierSign: "="
  IC50 [µM]: 6.1
- chemicalStructure: "C[C@@H]1CN(c2ccc(Nc3ncc4ccn(-c5ccc(NS(C)(=O)=O)cc5)c4n3)cn2)C[C@H](C)N1"
  qualifierSign: "="
  IC50 [µM]: 5.4

* * *

measuredOn: GST-JAK2(808-1132) (Homo sapiens)
Construct: GST-JAK2(808-1132); purchased Invitrogen (Carlsbad, USA) #4288
protocolText: JAK2 kinase assay (Caliper mobility shift, LabChip 3000)
Assay type: biochemical
Quick reference for IC50 among some molecules

- molecule: "Cc1ccc(Nc2ncc3ccn(-c4ccc(C(=O)NCCN5CCN(C)CC5)c(F)c4)c3n2)cc1C"
  measuredOn: "GST-JAK2(808-1132) (Homo sapiens)"
  readoutUnit: "nM"
  qualifierSign: "="
  IC50: 23
- molecule: "COc1cc(Nc2ncc3ccn(-c4ccc(C(=O)N5CCN(C)CC5)c(F)c4)c3n2)ccc1F"
  measuredOn: "GST-JAK2(808-1132) (Homo sapiens)"
  readoutUnit: "nM"
  qualifierSign: "="
  IC50: 250
- molecule: "Cc1cc(Nc2ncc3ccn(-c4cc(F)c(C(=O)N5CCOCC5)c(F)c4)c3n2)ccc1F [Example 89]"
  measuredOn: "GST-JAK2(808-1132) (Homo sapiens)"
  readoutUnit: "nM"
  qualifierSign: "<"
  IC50: 3
- molecule: "Cc1ccc(Nc2ncc3ccn(-c4cc(F)c(CN5CCOCC5)c(F)c4)c3n2)cc1C(=O)N1CCN(C)CC1"
  measuredOn: "GST-JAK2(808-1132) (Homo sapiens)"
  readoutUnit: "nM"
  qualifierSign: "="
  IC50: 3.8

* * *

Quick reference for IC50 among some molecules
measuredOn: PDGFRalpha (Homo sapiens)
Construct: using the recombinant domains of cMet, cKit, ALK and PDGFRalpha kinases
Sequence (P16234 593-954 limits assumed, species assumed): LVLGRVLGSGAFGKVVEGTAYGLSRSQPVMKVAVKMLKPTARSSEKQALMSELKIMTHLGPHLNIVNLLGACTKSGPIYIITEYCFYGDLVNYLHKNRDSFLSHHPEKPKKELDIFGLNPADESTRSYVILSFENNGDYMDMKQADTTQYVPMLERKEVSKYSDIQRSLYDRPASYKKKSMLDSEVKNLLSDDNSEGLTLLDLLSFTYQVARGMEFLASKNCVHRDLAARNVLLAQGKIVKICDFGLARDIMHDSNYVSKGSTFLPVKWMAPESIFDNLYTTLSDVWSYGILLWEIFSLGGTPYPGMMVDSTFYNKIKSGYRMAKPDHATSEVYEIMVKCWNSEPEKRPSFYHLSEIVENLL
protocolText: PDGFRalpha LanthaScreen TR-FRET kinase phosphorylation assay
testSettings: recombinant kinase domain, read-out: PDGFRa/IC50

- chemicalStructure: "OCCN1CCOC[C@@H]1c1ccc(Nc2ncc3ccn(-c4cc(F)c(CN5CCOCC5)c(F)c4)c3n2)cc1"
  qualifierSign: "="
  IC50 (µM): 2.8
- chemicalStructure: "N#Cc1ccc(Nc2ncc3ccn(-c4ccc(C(=O)N5CCOCC5)cc4)c3n2)cn1"
  qualifierSign: ">"
  IC50 (µM): 10
- chemicalStructure: "COCc1ccc(Nc2ncc3ccn(-c4cc(F)c(CN5CCS(=O)(=O)CC5)c(F)c4)c3n2)cc1"
  qualifierSign: ">"
  IC50 (µM): 10
- chemicalStructure: "Cc1ccc(Nc2ncc3ccn(-c4ccc(C(=O)N5CCOCC5)cc4)c3n2)cn1"
  qualifierSign: "="
  IC50 (µM): 6.6
- chemicalStructure: "Fc1cc(-n2ccc3cnc(Nc4ccnc(CN5CCNCC5)c4)nc32)cc(F)c1CN1CCOCC1"
  qualifierSign: ">"
  IC50 (µM): 10
- chemicalStructure: "CC1(C)NCCN(c2cc(Nc3ncc4ccn(-c5cc(F)c(CN6CCOCC6)c(F)c5)c4n3)ccn2)C1=O"
  qualifierSign: ">"
  IC50 (µM): 10
- chemicalStructure: "Cc1ccc(Nc2ncc3ccn(-c4cc(F)c(CN5CCNC(=O)C5)c(F)c4)c3n2)cc1CN1CCNCC1"
  qualifierSign: "="
  IC50 (µM): 7.7

* * *

Quick reference for pIC50 among some molecules
measuredOn: GST-JAK2(808-1132) (Homo sapiens)
Construct: GST-JAK2(808-1132); purchased Invitrogen (Carlsbad, USA) #4288
protocolText: JAK2 kinase assay (Caliper mobility shift, LabChip 3000)
Type: biochemical
pIC50: −log10 of the molar value.

- molecule: "Fc1cc(-n2ccc3cnc(Nc4ccc(N5CCN(C6CC6)CC5)nc4)nc32)cc(F)c1CN1CCOCC1"
  qualifierSign: "≥"
  pIC50: 8.52
- molecule: "CS(=O)(=O)c1ccc(-n2ccc3cnc(Nc4ccc(N5CCNCC5)nc4)nc32)cc1"
  qualifierSign: "="
  pIC50: 7.09
- molecule: "COc1ccc(Nc2ncc3ccn(-c4ccc(S(C)(=O)=O)cc4)c3n2)cc1OCCCN(C)C"
  qualifierSign: ">"
  pIC50: 8.52
- molecule: "C[C@@H]1CN(c2ccc(Nc3ncc4ccn(-c5ccc(C(=O)N6CCOCC6)c(F)c5)c4n3)cn2)C[C@H](C)N1"
  qualifierSign: "="
  pIC50: 8.32
- molecule: "Cc1ccc(Nc2ncc3ccn(-c4ccc(C(=O)N5CCS(=O)(=O)CC5)c(F)c4)c3n2)cc1CN1CCNC(C(F)(F)F)C1 (racemic)"
  qualifierSign: "≥"
  pIC50: 8.52
- molecule: "O=C(c1ccc(-n2ccc3cnc(Nc4ccc(C(F)(F)F)nc4)nc32)cc1F)N1CCOCC1"
  qualifierSign: "="
  pIC50: 7.38
- molecule: "OCCN1CCOC[C@@H]1c1ccc(Nc2ncc3ccn(-c4cc(F)c(CN5CCOCC5)c(F)c4)c3n2)cc1"
  qualifierSign: "≥"
  pIC50: 8.52
- molecule: "CN1CCN(C(=O)c2ccc(Nc3ncc4ccn(-c5cc(F)c(CN6CCOCC6)c(F)c5)c4n3)cn2)CC1"
  qualifierSign: "="
  pIC50: 8.10
- molecule: "O=C(c1cc(Nc2ncc3ccn(-c4cc(F)c(CN5CCOCC5)c(F)c4)c3n2)ccn1)N1CCNCC1"
  qualifierSign: "="
  pIC50: 7.82
- molecule: "O=C(c1c(F)cc(-n2ccc3cnc(Nc4ccc(CN5CCOCC5)cc4)nc32)cc1F)N1CCOCC1"
  qualifierSign: ">"
  pIC50: 8.52
- molecule: "CS(=O)(=O)c1ccc(-n2ccc3cnc(Nc4ccnc(N5CCNC6(CC6)C5)c4)nc32)cc1"
  qualifierSign: "="
  pIC50: 8.15
- molecule: "Cc1ccc(Nc2ncc3ccn(-c4ccc(C(=O)N5CCC(N(C)C)CC5)c(F)c4)c3n2)cc1C"
  qualifierSign: "="
  pIC50: 7.73
- molecule: "O=C(c1ccc(-n2ccc3cnc(Nc4ccc(F)cc4)nc32)cc1F)N1CCOCC1"
  qualifierSign: "="
  pIC50: 8.19
- molecule: "COc1cc(Nc2ncc3ccn(-c4cc(F)c(CN5CCOCC5)c(F)c4)c3n2)ccc1C"
  qualifierSign: "="
  pIC50: 7.85
- molecule: "CN1CCN(c2ccc(Nc3ncc4ccn(-c5cc(F)c(C#N)c(F)c5)c4n3)cn2)CC1"
  qualifierSign: "="
  pIC50: 7.37
